The reported measurements were obtained from paper PMC4111603.

tested_target: human recombinant COX-2 (Homo sapiens, UniProt P35354)
Construct: purchased Cayman Chemical Co. 60122
Sequence (P35354 18-604): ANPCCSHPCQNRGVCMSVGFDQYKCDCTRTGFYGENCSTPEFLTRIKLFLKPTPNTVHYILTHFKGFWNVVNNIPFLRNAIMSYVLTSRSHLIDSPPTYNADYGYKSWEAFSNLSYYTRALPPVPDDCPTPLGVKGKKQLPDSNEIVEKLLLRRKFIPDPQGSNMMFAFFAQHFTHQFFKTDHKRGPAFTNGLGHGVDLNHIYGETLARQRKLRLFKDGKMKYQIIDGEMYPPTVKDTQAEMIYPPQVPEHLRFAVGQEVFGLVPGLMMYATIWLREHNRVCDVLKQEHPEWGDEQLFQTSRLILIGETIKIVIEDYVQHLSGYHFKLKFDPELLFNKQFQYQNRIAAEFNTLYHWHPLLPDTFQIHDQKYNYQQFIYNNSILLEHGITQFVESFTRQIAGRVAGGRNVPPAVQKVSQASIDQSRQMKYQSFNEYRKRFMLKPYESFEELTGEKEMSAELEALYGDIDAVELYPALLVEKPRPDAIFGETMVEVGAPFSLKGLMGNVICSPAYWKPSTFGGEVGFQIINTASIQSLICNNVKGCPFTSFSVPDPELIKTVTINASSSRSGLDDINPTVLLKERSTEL
protocol_description: COX-2 oxygenation of arachidonic acid, oxygen electrode
Assay type: biochemical
measurement_setup: 100 µM NSAID; substrate AA 10 µM; initial activity 10-30 s; n = 3
Examples of compounds with documented COX-2 activity (% of control) follow.
recorded_endpoint: COX-2 activity (% of control)

INSERT INTO assay_data (compound, recorded_endpoint, result) VALUES
  ('CC(CO)Cc1ccc(C(C)C(=O)O)cc1 (centres unmarked) [3′-OH-Ibuprofen]', 'COX-2 activity (% of control)', '103±21 % of control'),
  ('CC(C(=O)O)c1ccc(-c2ccc(O)cc2)c(F)c1 (centres unmarked) [4′-OH-Flurbiprofen]', 'COX-2 activity (% of control)', '106±16 % of control'),
  ('CC(Cc1ccc(C(C)C(=O)O)cc1)C(=O)O (centres unmarked) [Carboxyibuprofen]', 'COX-2 activity (% of control)', '132±16 % of control'),
  ('CC(C(=O)O)c1ccc(CC(C)(C)O)cc1 (centres unmarked) [2′-OH-Ibuprofen]', 'COX-2 activity (% of control)', '98±17 % of control'),
  ('CC(C(=O)O)c1ccc(C(O)C(C)C)cc1 (centres unmarked) [1′-OH-Ibuprofen]', 'COX-2 activity (% of control)', '91±8 % of control');

----------
tested_target: Ovine COX-1 (Ovis aries, UniProt P05979)
Construct: purchased Cayman Chemical Co. 60100
Sequence (P05979 25-600): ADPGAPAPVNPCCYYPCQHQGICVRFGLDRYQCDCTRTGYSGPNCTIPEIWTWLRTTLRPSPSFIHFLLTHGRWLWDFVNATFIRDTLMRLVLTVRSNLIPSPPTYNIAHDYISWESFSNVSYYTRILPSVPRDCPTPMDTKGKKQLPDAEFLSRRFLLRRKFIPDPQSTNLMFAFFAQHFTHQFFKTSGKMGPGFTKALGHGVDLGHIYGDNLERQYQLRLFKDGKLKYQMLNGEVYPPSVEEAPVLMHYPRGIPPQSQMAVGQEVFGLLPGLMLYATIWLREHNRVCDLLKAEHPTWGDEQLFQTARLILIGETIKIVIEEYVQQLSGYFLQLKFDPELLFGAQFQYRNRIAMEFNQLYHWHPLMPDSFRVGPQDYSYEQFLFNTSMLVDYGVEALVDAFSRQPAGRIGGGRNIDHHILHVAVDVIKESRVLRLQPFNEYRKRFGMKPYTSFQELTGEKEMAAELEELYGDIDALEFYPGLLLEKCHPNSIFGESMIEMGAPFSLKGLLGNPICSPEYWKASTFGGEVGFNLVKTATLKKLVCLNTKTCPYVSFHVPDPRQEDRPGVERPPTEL
protocol_description: COX-1 oxygenation of arachidonic acid, oxygen electrode
Format: biochemical
measurement_setup: 100 µM NSAID; 10 µM AA; initial activity 10-30 s; mean ± s.e.m., n = 3
recorded_endpoint: COX-1 activity (% of control)

INSERT INTO results (molecule, result) VALUES
  ('CC(C(=O)O)c1ccc(C(O)C(C)C)cc1 (stereo not shown) [1′-OH-Ibuprofen]', '112±21 % of control'),
  ('CC(C(=O)O)c1ccc(CC(C)(C)O)cc1 (stereo not shown) [2′-OH-Ibuprofen]', '102±17 % of control'),
  ('CC(CO)Cc1ccc(C(C)C(=O)O)cc1 (stereo not shown) [3′-OH-Ibuprofen]', '81±16 % of control'),
  ('CC(C(=O)O)c1ccc(-c2ccc(O)cc2)c(F)c1 (stereo not shown) [4′-OH-Flurbiprofen]', '97±31 % of control');
